tested on: Porcine Smooth Muscle Cell; experiment: Effects of compounds on cell proliferation using 3H thymidine incorporation; format: cell-based; conditions: serum/growth factor stimulated cells, 3H thymidine incorporation, 24-36 h; read-out: Porcine Smooth Muscle Cell Antiproliferation IC50
pIC50: −log10 of the molar value.
quantityMeasured: pIC50

[[record]]
compound = "CC(=O)OC[C@H]1O[C@H](O[C@H]2[C@H](OC(C)=O)[C@@H](OC(C)=O)[C@H](OCc3ccc(Cl)c([N+](=O)[O-])c3)O[C@@H]2COC(C)=O)[C@H](OC(C)=O)[C@@H](OC(C)=O)[C@@H]1OC(C)=O [Example 1]"
targetundertest = "Porcine Smooth Muscle Cell"
testvalue = 6.07

